Value source: ChEMBL document CHEMBL3433997

Molecular target: Hexose transporter 1 (Plasmodium falciparum) (UniProt O97467)
Test: ST_JUDE_LEISH: Cytotoxicity at 2uM final concentration against transgenic Leishmania Mexicana promastigotes LmPfHT that are glucose transport deficient and complemented with the Plasmodium falciparum hexose transporter. Activity is measured by DNA content using SYBR green in vitro
Type: functional
OBSERVATION TYPE: inhibition (%)
Give just the numeric value; % need not be written.

Below, each entry is followed by its recorded inhibition result.
COMPOUND | OBSERVATION TYPE | UNIT INFO | TEST RESULT
CCc1ccc(S(=O)(=O)Nc2ccc(CCN(C)C3CCN(C)CC3)cc2)cc1 | inhibition | % | 3.41
CCc1cn2c3c(cc(C(=O)N[C@@H](Cc4cccc(F)c4)[C@H](O)CNC4CCCCC4)cc13)N(C)S(=O)(=O)CC2 | inhibition | % | -1.06
O=C(/C=C/c1ccc(Cl)c(Cl)c1)N1CCC(C(O)CN2CCC(c3c[nH]c4ccccc34)CC2)CC1 (centres undefined) | inhibition | % | 1.82
COc1ccc(Nc2ccnc3cc(Cl)ccc23)cc1OC | inhibition | % | 10.7
N=C1NC(c2ccccc2)(c2ccccc2)C(=O)N1C1CCCCC1 | inhibition | % | 3.28

Enquiry: Field request: inhibition | item: Cc1cccc2nc(-c3ccc(-c4ccc(NC(=O)Nc5cccc(C#N)c5)cc4)s3)[nH]c12
Return: 6.92

====

Each item that follows carries a reported inhibition.
Target: Hexose transporter 1 (Plasmodium falciparum)
Test: ST_JUDE_LEISH: Cytotoxicity at 2uM final concentration against transgenic Leishmania Mexicana promastigotes LmPfHT that are glucose transport deficient and complemented with the Plasmodium falciparum hexose transporter. Activity is measured by DNA content using SYBR green in vitro
Format: functional
Expressed in %, but write only the number.

Recorded inhibition, per entry:
SUBSTANCE SMILES | UNIT INFO | inhibition
O=C(Nc1ccc(-c2cccc(-c3nc4cc(C(F)(F)F)ccc4[nH]3)c2)cc1)c1ccoc1 | % | 3.58
CCN(c1ccc(O)c(CN2CCCCC2)c1)c1ccc([N+](=O)[O-])cn1 | % | 1.08
Cc1cc(N[C@@H](Cc2ccccc2)C(=O)NCCOc2ccccc2)nc(NCCc2ccccc2)n1 | % | 5.86
O=C(COc1ccc(Cl)c(Cl)c1)NCCCCCN1CCCN(C(=O)Nc2cc(Cl)cc(Cl)c2)CC1 | % | -0.58
CCc1ccc(NC(=O)c2ccc(CN3CCCN(CC4CCCCC4)CC3)cc2)cc1 | % | 10.3
Cc1cccc2nc(-c3ccc(-c4cccc(CN5CCN(c6ccncc6)CC5)c4)s3)[nH]c12 | % | 2.05
Brc1ccccc1CNc1ccnc(NCCn2ccnc2)n1 | % | 0.05
Cc1[nH]c(C)c(-c2ccc(OCCSc3ccncc3)cc2)c(=O)c1Br | % | -0.1

Switching to the query record.
Enquiry: Requested field: inhibition. Item: COc1cc(-n2cnc3cc(-c4ccc(Cl)cc4)sc3c2=O)ccc1OCCN1CCC(c2cccc(NC(C)=O)c2)CC1
Return: 3.81

====

Molecular target: Hexose transporter 1 (Plasmodium falciparum)
Test: ST_JUDE_LEISH: Cytotoxicity at 2uM final concentration against transgenic Leishmania Mexicana promastigotes LmPfHT that are glucose transport deficient and complemented with the Plasmodium falciparum hexose transporter. Activity is measured by DNA content using SYBR green in vitro
Assay type: functional
Recorded inhibition, one value per entry.
Answer in %, number only, no unit symbol.

Enquiry: # get_value(readout='inhibition', item= CC(=O)Nc1ccc(C#Cc2ccc(-c3c(C)[nH]c(C)c(Cl)c3=O)cc2)cc1 )
Return: 0.64

Enquiry: Try this molecule too: CCCCCCN1CCCN(Cc2ccc(C(=O)Nc3ccc(C)c(F)c3)cc2)CC1
Return: 7.68

Enquiry: Entry to check: CC1CN(S(=O)(=O)c2ccc(NC(=O)c3cc(-c4ccccc4O)n[nH]3)cc2)CC(C)O1 (centres undefined)
Return: 5.64

Enquiry: Try the molecule Cc1ccnc(NC(c2cccc(Cl)c2Cl)c2ccc3cccnc3c2O)c1 (centres undefined)
Return: 5.15

Enquiry: Entry to check: COc1c(F)ccc2ncc(Cl)c(CCN3CCC(NCc4ccc5c(n4)NC(=O)CS5)CC3)c12
Return: 6.77

Enquiry: Try the molecule COc1ccc(CCN(C)CCCCc2ccc(NC(=O)c3cccc4c(=O)c5cc(F)ccc5sc34)cc2)cc1OC
Return: 4.42

Enquiry: What about CN1CCN(CCCN(Cc2cccc(-c3cccc(CNC4CCCC4)c3)c2)C(=O)/C=C/c2ccccc2)CC1 ?
Return: -0.02

Enquiry: Try this molecule too: CC1CCCC(C)N1C[C@@H](O)CNS(=O)(=O)c1cccc(C(F)(F)F)c1 (some centres undefined)
Return: 0.37

Enquiry: Quick one: COc1cc(NC(=O)N2CCOC(CCN3CCC4(CCc5ccccc54)CC3)(c3ccc(Cl)c(Cl)c3)C2)cc(OC)c1OC (centres undefined)
Return: 15.1
